Tested on: CU-ACC1
ASSAY_DETAILS: area under concentration-response curve (viability) (AUC (a.u.)); higher = less active
EXPERIMENTAL_SETUP: 48 h
Record T whenever area under concentration-response curve is at 500 or higher; record F when lower.

> print(dat)
                                   compound  system.name  class.label
1  C[C@@H](N)c1ccc(C(=O)Nc2ccnc3[nH]ccc23)cc1      CU-ACC1            F
2  C#Cc1cccc(Nc2ncnc3cc4c(cc23)OCCOCCOCCO4)c1      CU-ACC1            F
3  CCN(CC)CCNC(=O)c1c(C)[nH]c(/C=C2\C(=O)Nc3ccc(F)cc32)c1C      CU-ACC1            T
4  COc1cc([S+](C)(=O)[O-])ccc1Nc1nc2ccc(-c3ccc(NC(=O)[C@H](C)c4ccc(F)cc4)cc3)cn2n1      CU-ACC1            T
5                         CN(C)C(=N)NC(=N)N      CU-ACC1            T

Query: Record CC(COc1ccccc1)N(CCCl)Cc1ccccc1 (centres undefined) ; criterion: area under concentration-response curve no lower than 500. Met?
Response: T

Query: Record C[C@@H](c1ncncc1F)[C@](O)(Cn1cncn1)c1ccc(F)cc1F ; criterion: area under concentration-response curve no lower than 500. Met?
Response: F

Query: Record OCCN1CCN(CCCN2c3ccccc3Sc3ccc(C(F)(F)F)cc32)CC1 ; criterion: area under concentration-response curve no lower than 500. Met?
Response: F

Query: Record O=C1N\C=N/C2=C1C=N[NH]2 ; criterion: area under concentration-response curve no lower than 500. Met?
Response: T

Query: Record COc1ccc(-c2cc(=O)c3c(O)cc(O)cc3o2)cc1O ; criterion: area under concentration-response curve no lower than 500. Met?
Response: F

Query: Record CCn1c(-c2nonc2N)nc2cncc(CNC3CCNCC3)c21 ; criterion: area under concentration-response curve no lower than 500. Met?
Response: F

* * *

# AC50 viability values compiled below
System: CU-ACC1
ASSAY_DETAILS: AC50 viability; higher = less potent
EXPERIMENTAL_SETUP: 48 h
Number in µM, nothing else.

Use these answered entries as a reference point.
> print(dat)
                                   compound  result.number
1  Cc1ccc([N+](=O)[O-])cc1[S+](=O)([O-])N(C)/N=C/c1cnc2ccc(Br)cn12          0.417
2    c1ccc(CNc2nc(NCc3ccccc3)c3ccccc3n2)cc1           7.42
3  CN(C)c1ccccc1CN1CCCN(Cc2ccccc2N(C)C)C1c1ccncc1           8.33

Query: What reported AC50 viability corresponds to O=C1NC(=O)/C(=C/c2ccc3nccc(-c4ccncc4)c3c2)S1 on CU-ACC1?
Response: 1.32

Query: What reported AC50 viability corresponds to Cc1cccc(CN2CCN(C(c3ccccc3)c3ccc(Cl)cc3)CC2)c1 (stereo not drawn) on CU-ACC1?
Response: 13.2

Query: What reported AC50 viability corresponds to CC(O)(C#Cc1ccc2c(c1)N(c1nc(N)ncc1Cl)CC2)c1nccs1 (stereo not drawn) on CU-ACC1?
Response: 14.8

Query: What reported AC50 viability corresponds to NC(=O)c1cccc2nc(-c3ccc([C@H]4CCCN4)cc3F)[nH]c12 on CU-ACC1?
Response: 8.33

Query: What reported AC50 viability corresponds to ClC1=CC=C(CCCOC/2=N/NC(=O)C(=C2NCC3=CN=CC=C3)/Br)C=C1 on CU-ACC1?
Response: 3.72

The reported measurements were obtained from the supplement of paper PMC10949913.
